molecular target: PfCDPK4 (Plasmodium falciparum (isolate 3D7)); test: biochemical; settings: read-out: PfCDPK4 (% inhibition @ 3 uM)
We'd kindly ask you to apply these inhibition at 3 µM classes: lo: < 60%; mid: ≥ 60% and < 90%; hi: ≥ 90%

molecule=Nc1ncnc2c1c(-c1ccc(-c3ccccc3)cc1)nn2CC1CCNCC1 discrete_label=mid
molecule=CC(C)n1nc(-c2ccnc(Cl)c2)c2c(N)ncnc21 discrete_label=lo
molecule=CC(C)(C)n1nc(-c2ccc3ncccc3c2)c2c(N)ncnc21 discrete_label=hi
molecule=CC(C)(C)n1ncc2c(N)ncnc21 discrete_label=lo
molecule=Nc1ncnc2c1c(Cc1cccc3ccccc13)nn2C1CCNCC1 discrete_label=mid
molecule=CC(=O)N1CCC(n2nc(Cc3cccc4ccccc34)c3c(N)ncnc32)CC1 discrete_label=lo

Which class does `CC(C)n1nc(-c2ccc3ccccc3c2)c2c(N)ncnc21` fall in?
hi

Which class does `NCCCCCC(=O)Nc1nc2ccc(C(=O)c3ccccc3)cc2[nH]1` fall in?
mid

Which class does `CC(C)Oc1ccc2cc(-c3nn(C(C)C)c4ncnc(N)c34)ccc2c1` fall in?
mid

Which class does `COc1ccc(-c2nn(C(C)(C)C)c3ncnc(N)c23)cc1C` fall in?
hi

Which class does `N[C@@H](Cc1ccc(O)cc1)C(=O)Nc1nc2ccc(C(=O)c3ccccc3)cc2[nH]1` fall in?
lo

* * *

Exercise: for every item that follows, state its recorded inhibition at 3 µM.
target: PfCDPK1 (Plasmodium falciparum (isolate 3D7), UniProt P62344); experiment: biochemical; conditions: read-out: PfCDPK1 (% inhibition @ 3 uM)
Numbers only, in %.

molecule=Nc1ncnc2c1c(-c1ccc3oc(-c4ccccc4)nc3c1)nn2CC1CCNCC1 unit_spec=% observed_measurement=101

Batch of 6 molecules: report inhibition at 3 µM for each.
1. CC(C)(C)n1nc(-c2ccc(NC(=O)C3CCCCC3)cc2)c2c(N)ncnc21
2. CC(C)n1nc(-c2cccc(OCc3ccccc3Cl)c2)c2c(N)ncnc21
3. COC(=O)Nc1nc2ccc(C(O)c3ccccc3)cc2[nH]1 (centres unmarked)
4. NCCCCCC(=O)Nc1nc2ccc(C(=O)c3ccccc3)cc2[nH]1
5. CC(C)n1nc(-c2ccc3cc(OCc4cccc(Cl)c4)ccc3c2)c2c(N)ncnc21
6. Cn1ncc2cc(-c3nn(C(C)(C)C)c4ncnc(N)c34)ccc21

1: 101; 2: 68; 3: 56; 4: 71; 5: 91; 6: 98

I'd like to know its inhibition at 3 µM. The molecule in question is `Nc1ncnc2c1c(-c1ccc3ccccc3c1)nn2CC1CCNCC1`
100

* * *

tested on: P. falciparum; assay: P. falciparum NF54 gametocyte exflagellation with compound in blood; format: cell-based, Plasmodium falciparum; conditions: Plasmodium falciparum, read-out: Parasite Proliferation Assay EC50 P. falciparum Exflaggelation
outcome.measure: EC50 (nM)
Answers are plain numbers, in nM.

# returns recorded EC50 (system: P. falciparum) for CCOc1ccc2cc(-c3nn(CC4CCN(C)CC4)c4ncnc(N)c34)ccc2c1 [Compound 150]
50

* * *

biological target: PfCDPK1 (Plasmodium falciparum (isolate 3D7)); assay: biochemical; conditions: read-out: PfCDPK1 (% inhibition @ 3 uM)
Exercise: for every item that follows, state its recorded inhibition at 3 µM.
One number for each entry, in %.

smiles_input=Cc1ccc(-c2nn(C(C)C)c3ncnc(N)c23)cc1C outcome_measure="inhibition at 3 µM" observed_measurement=83
smiles_input=CCOc1ccc2cc(-c3nn(C(C)(C)C)c4ncnc(N)c34)ccc2c1 outcome_measure="inhibition at 3 µM" observed_measurement=95
smiles_input=CC(C)n1nc(-c2cccc(OCc3ccccc3)c2)c2c(N)ncnc21 outcome_measure="inhibition at 3 µM" observed_measurement=75
smiles_input=CC(C)Oc1ccc2cc(-c3nn(C(C)C)c4ncnc(N)c34)ccc2c1 outcome_measure="inhibition at 3 µM" observed_measurement=93
smiles_input=CC(C)(C)n1nc(-c2ccc(NC(=O)CCl)cc2)c2c(N)ncnc21 outcome_measure="inhibition at 3 µM" observed_measurement=97
smiles_input=Cc1ccc(C(F)(F)F)cc1COc1ccc2cc(-c3nn(C(C)C)c4ncnc(N)c34)ccc2c1 outcome_measure="inhibition at 3 µM" observed_measurement=83
smiles_input=CC(C)(C)n1nc(-c2ccccc2)c2c(N)ncnc21 outcome_measure="inhibition at 3 µM" observed_measurement=98
smiles_input=Nc1ncnc2c1c(-c1ccc3nccnc3c1)nn2CC1CCNCC1 outcome_measure="inhibition at 3 µM" observed_measurement=97

Now look at this one.
I'd like to know its inhibition at 3 µM. The compound in question is `CC(C)n1nc(-c2cnc3ccccc3c2)c2c(N)ncnc21`
65

* * *

molecular target: PfCDPK1 (Plasmodium falciparum (isolate 3D7)); assay: biochemical; settings: read-out: PfCDPK1 (% inhibition @ 3 uM)
outcome.measure: inhibition at 3 µM
Form entry: enter the amount, then its unit.

Below: 2 molecules and their reported inhibition at 3 µM.
smiles_input=CC(C)n1nc(-c2ccc3cc(OCc4ccccc4)ccc3c2)c2c(N)ncnc21 target_entity="PfCDPK1 (Plasmodium falciparum (isolate 3D7))" observed_measurement=101%
smiles_input=NCCCCNC(=O)Nc1nc2ccc(C(=O)c3ccccc3)cc2[nH]1 target_entity="PfCDPK1 (Plasmodium falciparum (isolate 3D7))" observed_measurement=79%

Batch of 8 molecules: report inhibition at 3 µM for each.
1. CCCOc1ccc2cc(-c3nn(C(C)C)c4ncnc(N)c34)ccc2c1
2. CC(C)CC(=O)Nc1ccc(-c2nn(C(C)(C)C)c3ncnc(N)c23)cc1
3. CC(C)(C)c1nc(-c2ccc3ccccc3c2)c2c(N)nccn12
4. Cc1cc(-c2nn(C(C)C)c3ncnc(N)c23)ccc1F
5. CC(C)n1nc(-c2ccc3cc(OCc4ccccc4Cl)ccc3c2)c2c(N)ncnc21
6. CC(C)(C)n1nc(Cc2cccc3ccccc23)c2c(N)ncnc21
7. CC(C)(C)n1nc(-c2ccc(NC(=O)Cc3ccccc3)cc2)c2c(N)ncnc21
8. N[C@@H](Cc1ccc(O)cc1)C(=O)Nc1nc2ccc(C(=O)c3ccccc3)cc2[nH]1

1: 95%; 2: 102%; 3: 101%; 4: 79%; 5: 95%; 6: 76%; 7: 100%; 8: 54%

* * *

Exercise: for every item that follows, state its recorded inhibition at 3 µM.
target: PfCDPK4 (Plasmodium falciparum (isolate 3D7), UniProt Q8IBS5); assay: biochemical; settings: read-out: PfCDPK4 (% inhibition @ 3 uM)

Below: 3 molecules and their reported inhibition at 3 µM.
smiles_input=CC(C)c1nc(-c2cnc3ccccc3c2)c2c(N)nccn12 observed_measurement=88%
smiles_input=Cc1ccc(S(=O)(=O)Nc2ccc(-c3nn(-c4ccccc4)c4ncnc(N)c34)cc2)cc1 observed_measurement=5%
smiles_input=Nc1ncnc2c1c(-c1ccccc1)nn2CC1CCNCC1 observed_measurement=63%

Batch of 5 molecules: report inhibition at 3 µM for each.
1. CS(=O)(=O)N1CCC(CCn2nc(Cc3cccc4ccccc34)c3c(N)ncnc32)CC1
2. Nc1ncnc2c1c(Cc1cccc3ccccc13)nn2CC1CCCCC1
3. Cc1cc(-c2nn(CC3CCNCC3)c3ncnc(N)c23)ccc1-c1ccccc1
4. CS(=O)(=O)N1CCC(Cn2nc(Cc3cccc4ccccc34)c3c(N)ncnc32)CC1
5. CC(C)(C)n1nc(-c2ccc(NC(=O)C3CCCC3)cc2)c2c(N)ncnc21

["22%", "5%", "81%", "15%", "96%"]

# returns recorded inhibition at 3 µM (system: PfCDPK4 (Plasmodium falciparum (isolate 3D7), UniProt Q8IBS5)) for `CC(C)n1nc(-c2cccc(Cc3ccccc3)c2)c2c(N)ncnc21`
17%

* * *

target: PfCDPK4 (Plasmodium falciparum (isolate 3D7)); assay: biochemical; settings: read-out: PfCDPK4 (% inhibition @ 3 uM)
Threshold check on inhibition at 3 µM: at or above 70% gives rule met, strictly below gives rule not met.

Record excerpt, results attached:
smiles_input=CC(C)c1nc(-c2ccc3ccccc3c2)c2c(N)nccn12 target_entity="PfCDPK4 (Plasmodium falciparum (isolate 3D7))" discrete_label="rule met"
smiles_input=CCN1CCC(Cn2nc(Cc3cccc4ccccc34)c3c(N)ncnc32)CC1 target_entity="PfCDPK4 (Plasmodium falciparum (isolate 3D7))" discrete_label="rule not met"
smiles_input=CC(C)(C)n1nc(-c2ccccc2)c2c(N)ncnc21 target_entity="PfCDPK4 (Plasmodium falciparum (isolate 3D7))" discrete_label="rule met"
smiles_input=Nc1ncnc2c1c(Cc1cccc3ccccc13)nn2CC1CCNCC1 target_entity="PfCDPK4 (Plasmodium falciparum (isolate 3D7))" discrete_label="rule met"
smiles_input=CC(C)n1nc(-c2ccc3c(c2)OCO3)c2c(N)ncnc21 target_entity="PfCDPK4 (Plasmodium falciparum (isolate 3D7))" discrete_label="rule met"
smiles_input=COc1ccc(-c2nn(C(C)C)c3ncnc(N)c23)cc1OC target_entity="PfCDPK4 (Plasmodium falciparum (isolate 3D7))" discrete_label="rule not met"
smiles_input=Nc1ncnc2c1c(Cc1cccc3ccccc13)nn2CCC1CCNCC1 target_entity="PfCDPK4 (Plasmodium falciparum (isolate 3D7))" discrete_label="rule met"
smiles_input=Cc1ccccc1COc1ccc2cc(-c3nn(C(C)C)c4ncnc(N)c34)ccc2c1 target_entity="PfCDPK4 (Plasmodium falciparum (isolate 3D7))" discrete_label="rule not met"
smiles_input=CC(C)(C)C(=O)Nc1ccc(-c2nn(C(C)(C)C)c3ncnc(N)c23)cc1 target_entity="PfCDPK4 (Plasmodium falciparum (isolate 3D7))" discrete_label="rule met"
smiles_input=CC(C)n1nc(-c2ccc3cc(OCc4ccc(Cl)cc4)ccc3c2)c2c(N)ncnc21 target_entity="PfCDPK4 (Plasmodium falciparum (isolate 3D7))" discrete_label="rule met"

Hi, just wondering whether `CCCOc1ccc2cc(-c3nn(C(C)C)c4ncnc(N)c34)ccc2c1` shows inhibition at 3 µM of 70% or higher.
rule met

Hi, just wondering whether `Nc1ncnc2c1c(Cc1cccc3ccccc13)nn2Cc1ccccc1` shows inhibition at 3 µM of 70% or higher.
rule not met

Hi, just wondering whether `CC(=O)N1CCC(CCn2nc(Cc3cccc4ccccc34)c3c(N)ncnc32)CC1` shows inhibition at 3 µM of 70% or higher.
rule not met

Hi, just wondering whether `Nc1ncnc2c1c(Cc1cccc3ccccc13)nn2C1CCOCC1` shows inhibition at 3 µM of 70% or higher.
rule not met

Hi, just wondering whether `CC(C)(C)n1nc(-c2ccc(NC(=O)C3CCCCC3)cc2)c2c(N)ncnc21` shows inhibition at 3 µM of 70% or higher.
rule not met

Hi, just wondering whether `O=C(CCC1CCNCC1)Nc1nc2ccc(C(=O)c3ccccc3)cc2[nH]1` shows inhibition at 3 µM of 70% or higher.
rule met

Hi, just wondering whether `CC(=O)N1CCC(Cn2nc(Cc3cccc4ccccc34)c3c(N)ncnc32)CC1` shows inhibition at 3 µM of 70% or higher.
rule not met

These entries and their values trace back to patent US11247972B2.
